Catalogue of molecules with associated cell viability
Test system: Caco-2
Assay: cell viability relative to DMSO; higher = less toxic
Details: 72 h; 10000 nM

[
  {
    "MOLECULE": "C/C=C(/C(=C/C)c1ccc(O)cc1)c1ccc(O)cc1",
    "QUANTITY UNIT": "%",
    "cell viability": 102
  },
  {
    "MOLECULE": "c1ccc(CN2CCC3(CCc4ccccc43)CC2)cc1",
    "QUANTITY UNIT": "%",
    "cell viability": 89.6
  },
  {
    "MOLECULE": "Cc1cccc(C)c1NC(=O)CN1CCCC1=O",
    "QUANTITY UNIT": "%",
    "cell viability": 91.2
  },
  {
    "MOLECULE": "CCC[S+]([O-])c1ccc2[nH]c(NC(=O)OC)nc2c1 (stereo not drawn) [albendazole-oxide]",
    "QUANTITY UNIT": "%",
    "cell viability": 102
  },
  {
    "MOLECULE": "C[C@H](NC(=O)c1sccc1OCc1ccc(Cl)cc1)c1ccccc1",
    "QUANTITY UNIT": "%",
    "cell viability": 67.7
  },
  {
    "MOLECULE": "CC[C@H]1OC(=O)[C@H](C)[C@@H](O[C@H]2C[C@@](C)(OC)[C@@H](O)[C@H](C)O2)[C@H](C)[C@@H](O[C@@H]2O[C@H](C)C[C@H](N(C)C)[C@H]2O)[C@](C)(O)C[C@@H](C)C(=O)[C@H](C)[C@@H](O)[C@]1(C)O",
    "QUANTITY UNIT": "%",
    "cell viability": 96.4
  },
  {
    "MOLECULE": "O[C@@H](CN1CCNCC1)Cn1c2ccc(Br)cc2c2cc(Br)ccc21",
    "QUANTITY UNIT": "%",
    "cell viability": 10.4
  },
  {
    "MOLECULE": "O=C1c2c(O)cccc2Cc2cccc(O)c21",
    "QUANTITY UNIT": "%",
    "cell viability": 93.4
  },
  {
    "MOLECULE": "CCCC(C)C1(CC)C(=O)NC(=S)NC1=O (stereo not drawn)",
    "QUANTITY UNIT": "%",
    "cell viability": 91
  },
  {
    "MOLECULE": "O=S(=O)(O)c1cc(I)c(O)c2ncccc12",
    "QUANTITY UNIT": "%",
    "cell viability": 94.8
  },
  {
    "MOLECULE": "C[C@H](CCC(=O)O)[C@H]1CC[C@H]2[C@@H]3[C@@H](O)C[C@@H]4C[C@H](O)CC[C@]4(C)[C@H]3CC[C@]12C",
    "QUANTITY UNIT": "%",
    "cell viability": 85.8
  },
  {
    "MOLECULE": "CCn1c2ccccc2c2cc(CNCc3ccccc3OC)ccc21",
    "QUANTITY UNIT": "%",
    "cell viability": 101
  },
  {
    "MOLECULE": "CCOc1cccc(NC(=O)c2ccc(N3CCCC3)c(C(F)(F)F)c2)c1",
    "QUANTITY UNIT": "%",
    "cell viability": 86.4
  },
  {
    "MOLECULE": "CC1(C)Oc2ccc(C#N)cc2[C@@H](N2CCCC2=O)[C@@H]1O",
    "QUANTITY UNIT": "%",
    "cell viability": 99.6
  },
  {
    "MOLECULE": "CC(C)(O)CC[C@@H](O)[C@](C)(O)[C@H]1CC[C@@]2(O)C3=CC(=O)[C@@H]4C[C@@H](O)[C@@H](O)C[C@]4(C)[C@H]3CC[C@]12C [20-hydroxyecdysone]",
    "QUANTITY UNIT": "%",
    "cell viability": 97.1
  },
  {
    "MOLECULE": "N=C(N)SCCc1ccc(OCc2ccc([N+](=O)[O-])cc2)cc1",
    "QUANTITY UNIT": "%",
    "cell viability": 94.5
  },
  {
    "MOLECULE": "O=C1NC(=O)c2cc(Nc3ccccc3)c(Nc3ccccc3)cc21",
    "QUANTITY UNIT": "%",
    "cell viability": 82.5
  },
  {
    "MOLECULE": "CC/C=C\\C/C=C\\C/C=C\\C/C=C\\C/C=C\\C/C=C\\CCC(=O)OCC",
    "QUANTITY UNIT": "%",
    "cell viability": 100
  }
]
